assay: adipocyte viability effects, profiling panel, cell-based, 3T3-L1 adipocytes, calcein-AM fluorescence, 48 h, basal (AID 1163); conditions: 3T3-L1 adipocytes viability, higher = more signal; note: test concentration not given here
quantity measured: z-score

molecule	quantity measured	meas value
COCCOC(=O)N1C(=O)[C@@]2(c3cc(C#CC4(O)CCCCCC4)ccc31)[C@H](C(=O)N1CCCCCCC1)[C@H]1C(=O)O[C@H](c3ccccc3)[C@H](c3ccccc3)N1[C@@H]2c1ccc(OCCO)cc1	z-score	1.85
COCCOC(=O)N1C(=O)[C@@]2(c3cc(C#Cc4ccc(OC)cc4)ccc31)[C@H](C(=O)N1CCCCCCC1)[C@H]1C(=O)O[C@H](c3ccccc3)[C@H](c3ccccc3)N1[C@@H]2c1ccc(O)cc1	z-score	1.07
CCCCN1CC=CC23O[C@@H]4C=CCOC(=O)[C@@H]4[C@H]2C(=O)N(C(C)CO)[C@@H]3C1=O (stereo not given in full)	z-score	0.434
C=C(CCCC)/C(=C/C[C@@H](OC(C)=O)c1ccc(CO)o1)c1cc(C(=O)OC)ccc1OC	z-score	-0.504
CC(C)c1ccc(NN2C(C(O)c3ccco3)C=CC3C(=O)N(c4ccccc4)C(=O)C32)cc1 (stereo not given)	z-score	-1.49
C=CCN1C(=O)[C@]2(CC=C)N=C(c3ccc(OCCCO)cc3)O[C@@H]2c2ccccc21	z-score	0.931
CC(C)C(O)C1C=CC2C(=O)N(C)C(=O)C2N1Nc1ccccc1 (stereo not given)	z-score	-0.955
C[C@H]1ON(c2ccc(C(=O)OC(C)(C)C)cc2)[C@@H](c2ccc(O)cc2)[C@@H]1C(=O)N1C(=O)OC[C@@H]1c1ccccc1	z-score	0.97
Cc1ccc(C(C)CC(O)C2C=CC3C(=O)N(c4ccccc4)C(=O)C3N2Nc2ccc(C(C)C)cc2)o1 (stereo not given)	z-score	-0.279
C=CCN1C(=O)[C@@]2(O[C@@H](CCn3cc([C@H](O)c4ccccc4)nn3)[C@H]([Si](C)(C)c3ccc(OC)cc3)[C@H]2C)c2ccccc21	z-score	0.432

Hello, the source for this data is PubChem BioAssay, in case you need it.
